system: CCRF-CEM; assay: NCI tumour cell line growth inhibition, 48 h
Active and inactive are the calls of the source. Cut-off read from the data, not from the text of the source: active = GI50 up to about 1.1 µM and inactive = higher.
Could you please pick one outcome from this set? active, inactive

- compound: "O=c1cc(-c2ccccc2)[nH]c2ccc(N3CCCCC3)cc12"
  category: "active"
- compound: "Cc1ccc(Nc2nc(=O)c3c([nH]c4ccccc43)s2)cc1"
  category: "inactive"
- compound: "O=C1N(c2ccccc2)C2(O)C(=O)c3ccccc3C2(O)N1c1ccccc1 (centres undefined)"
  category: "inactive"
- compound: "CCc1c(C#N)c(=O)[nH]c(=O)n1CCN1CCN(C(=O)NCCCCCCNC(=O)N2CCN(CCn3c(CC)c(C#N)c(=O)[nH]c3=O)CC2)CC1"
  category: "inactive"
- compound: "CC1=C(C(=O)Nc2cc(=O)n(C)c(=O)n2C)C(c2ccc([N+](=O)[O-])cc2)C(C(=O)Nc2cc(=O)n(C)c(=O)n2C)=C(C)N1"
  category: "inactive"
- compound: "Cn1c(COC(=O)NC2CCCCC2)c(COC(=O)NC2CCCCC2)c2ccc3cc(C=O)ccc3c21"
  category: "inactive"

Moving on to the next compound.
Task item: Per the assay record, what outcome was assigned to O=[N+]([O-])/C(C(Cl)=C(Cl)Cl)=C(/Sc1ccccc1)N1CCOCC1 ?
Reply: inactive

---

test system: RXF 393; assay: NCI tumour cell line growth inhibition, 48 h
The source made the active and inactive calls. No stated cut-off is given here; in the data, active = GI50 up to about 1.1 µM and inactive = higher.
value_kind: GI50

Some solved entries appear below for comparison.
- compound: "CC(C)(C)C1CCC2c3c([nH]c4ccccc34)C3C(=O)N(c4ccc([N+](=O)[O-])cc4)C(=O)C3C2C1 (stereo unspecified)"
  GI50: "10.4 µM (inactive)"
- compound: "Cn1c(COC(=O)NC2CCCCC2)c(COC(=O)NC2CCCCC2)c2ccc3cc(C=O)ccc3c21"
  GI50: "51.1 µM (inactive)"
- compound: "O=C(CCCc1cccc2[nH]c3c(c12)CN(Cc1ccccc1)CC3)c1ccc(F)cc1"
  GI50: "> 29.9 µM (inactive)"
- compound: "CC(C)(C)C(=O)Nc1cccc2oc(-c3ccccc3)cc12"
  GI50: "17.3 µM (inactive)"
- compound: "CC1=NC(C)(COC(=O)C2(C)NC(C)(CO)CO2)COC1=O (stereo unspecified)"
  GI50: "> 100 µM (inactive)"

Consider the record given below.
Task item: Data request, read-out GI50, for CN(CC(=O)O)c1ncc2c(n1)-c1ccccc1OC2
Reply: > 100 µM (inactive)

---

Each item that follows carries a reported GI50.
tested on: ACHN; test: NCI tumour cell line growth inhibition, 48 h
Active and inactive are the calls of the source. No stated cut-off is given here; in the data, active = GI50 up to about 1.1 µM and inactive = higher.

These recorded examples may help you get a feel for the data.
- molecule: "O=C(CSc1nnc(-c2ccc(/N=C\\c3ccc(Cl)cc3)cc2)o1)Nc1cccc([N+](=O)[O-])c1"
  GI50: "> 100 µM (inactive)"
- molecule: "O=c1[nH]c(=O)n(C2CC(O)C(CO)O2)cc1OCCc1ccccc1 (stereo not drawn)"
  GI50: "> 100 µM (inactive)"

Task item: Entry COC1C(=[N+]=[N-])C(=O)NC(=O)N1C1OC(COC(c2ccccc2)(c2ccccc2)c2ccccc2)C(O)C1O (stereo not drawn) has what GI50?
Reply: 18.1 µM (inactive)

---

Below is a list of entries, each paired with its recorded GI50 value.
system: ACHN; assay: NCI tumour cell line growth inhibition, 48 h
Activity calls are given as the source filed them. No stated cut-off is given here; in the data, active = GI50 up to about 1.1 µM and inactive = higher.

- molecule: "CC(=O)CC(=O)Nc1ccccc1C(F)(F)F"
  GI50: "> 100 µM (inactive)"
- molecule: "O=[N+]([O-])/C(C(Cl)=C(Cl)Cl)=C(/Sc1ccccc1)N1CCOCC1"
  GI50: "4.82 µM (inactive)"
- molecule: "COC(=O)c1ccc(Oc2nc3ccc(C(F)(F)F)cc3nc2-c2ccccc2)cc1"
  GI50: "56.9 µM (inactive)"
- molecule: "CCn1cc(C(=O)O)c(=O)c2cc(F)c(N3CCNCC3)nc21"
  GI50: "> 100 µM (inactive)"
- molecule: "COc1cc(OC)cc(OCc2ccc3nc(-c4ccccc4)c(Cl)nc3c2)c1"
  GI50: "17.7 µM (inactive)"

Task item: // lookup GI50 | system=ACHN | key= CCCCCCCCCCCCCCCC1(OC)C[N+](C)(C)CCO1 (stereo not drawn)
Reply: 1.85 µM (inactive)

Task item: Query OC(CC(CC(O)(C(F)(F)Cl)C(F)(F)Cl)=NNc1ccccc1)(C(F)(F)Cl)C(F)(F)Cl next
Reply: 2.79 µM (inactive)

Task item: Same for CS(=O)(=O)c1ccc(-c2cc(-c3ccc(S(C)(=O)=O)cc3)[n+](-c3cc(-c4ccc(S(C)(=O)=O)cc4)c([O-])c(-c4ccc(S(C)(=O)=O)cc4)c3)c(-c3ccc(S(C)(=O)=O)cc3)c2)cc1
Reply: > 100 µM (inactive)
